Reported pKi for target or system sigma-1 receptor (Homo sapiens, UniProt Q99720), by entry.
pKi field: float, defined as -log10 of concentration (mol/L).

>>> recorded_measurement("O=C([C@H]1C[C@@H]1c1ccc(F)cc1)N1CCN(C2CCCC2)CC1")
6.70
>>> recorded_measurement("O=C([C@H]1C[C@@H]1c1ccc(F)cc1)N1CCN(C2CCCCC2)CC1")
5.89

Name the reported pKi value associated with the compound O=C([C@H]1C[C@@H]1c1ccc(F)cc1)N1CCN(C2CCC2)CC1
8.79

###

// reported logD per item
- procedure_summary: Log D by shake-flask method
- Format: physicochemical
- condition_summary: n-octanol/PBS
Hey, just send me the number, nothing else.

Name the reported logD value associated with the compound O=C([C@H]1C[C@@H]1c1ccc(F)cc1)N1CCN(C2CCCC2)CC1 [Compound 3]
2.82

Now consider O=C([C@H]1C[C@@H]1c1ccc(F)cc1)N1CCN(C2CCC2)CC1 [Compound 2] and answer again.
2.76

Now consider O=C([C@H]1C[C@@H]1c1ccc([18F])cc1)N1CCN(C2CCCCC2)CC1 [[^18F]4] and answer again.
3.35

Now consider O=C([C@H]1C[C@@H]1c1ccc([18F])cc1)N1CCN(C2CCCC2)CC1 [[^18F]3] and answer again.
2.82

Now consider O=C([C@H]1C[C@@H]1c1ccc(F)cc1)N1CCN(C2CCCCC2)CC1 [Compound 4] and answer again.
3.35
